test: yeast display, Sf9 membrane polyspecificity reagent, FACS + sequencing; frameworks hold sequencing errors
Metric Name: polyreactivity (PSR sort gate)

| Sequence Input | polyreactivity (PSR sort gate) |
| --- | --- |
| QVQLVESGGGLVQAGGSNRLSCAASGYIFDIYAMGCYRQAPVKERELVAVITRSGGGTYYADSVKGRFTISRDNAKNSVYLQMNSLKPEDTAVYYCAAESYVYGGSDYDYWGQGTQVTVSS | low polyreactivity |
| QVQLVESGGGLVQAGGSLRLSCAASGRTFTSYAIGWYRQAPGKERELVAAISGSGSRTKYADSVKGRFTISRDNAKNTVYLQMNSLKPEDTAVYYCNADYRHRHDYWGQGTQVTVSS | high polyreactivity |
| QVQLVESGGGLVQAGGSLRLSCAASGFIFPNNAMGWYRQAPGKERELVARISYGGGDTHYADSVKGRFTISRDTAKNTVYLQMNSLKPEDTAVYYCAVKDGQDDYWGQGTQVTVSS | low polyreactivity |
| QVQLVESGGGLVQAGGSLRLSCAASGRIFDYYPKGWYRQAPGKERELVAAISVRGGSTYYADSVKGRFTISRDNAKNTVYLQMNSLKPEDTAVYYCAARSWPHRTYYYWGQGTQVTVSS | high polyreactivity |

Consider the additional sequence presented here.
What does the record list as polyreactivity (PSR sort gate) for QVQLVESGGGLVQAGGSLRLISAASGFIFRYNAMGWYRQAPGKESELVATISSGGGNTYYADSVKGRFTISRDNAKNTVYLQMNSLKPEDTAVYYCAARRYYGVYYAFYYWGQGTQVTVSS ?
high polyreactivity

###

test: yeast display, Sf9 membrane polyspecificity reagent, FACS + sequencing; frameworks hold sequencing errors
Metric Name: polyreactivity (PSR sort gate)

| Sequence Input | polyreactivity (PSR sort gate) |
| --- | --- |
| QVQLVESGGGLVQAGGSLRLSCAASGSIFRSNTMGWYRQAPGKERELVAGISYSGGSTYADSVKGRFTISRDNAKNTVYLQMNSLKPEDTAVYYCNTVYDPHTGQSDSWGQATQVTVSS | low polyreactivity |
| QVQLVESGGGLVQAGGSLRLSCAASGRTFGKYAMGWYRQAPGKERELVAAITTRVVITYYADSVKGRFTISRDTAKNTVYLQMNSLKPEDTAVYYCAADPEKIYRPFNHYYYWGQGTQVTVSS | low polyreactivity |
| QVQLVESGGGLVQAGGSLRLSCAASGRTLGRNAMGWYRQAPGKERELVASISSGGSTNYADSVKGRFTISRDNAKNTVYLQMNSLKPEDTAVYYCNKRYRSLYSSGYDYWGQGTQVTVSS | high polyreactivity |
| QVQLVESGGGLVQAGGSLRLSCAASGSIFVEYAMGWYRQAPGQERELVAAISYSGSSTNYADSVKGRFTISRDNAKNTVYLQINSLKPEDTAVYYSNADGTGGEQKPYYELDYWGQGTQVTVSS | low polyreactivity |
| QVQLVESGGGLVQAGGSLRLSCAASGRTFLTNAMGWYRQAPGKERELVAAITSSGGNTYYADSVKGRFTISRDNAKNTVYLQMNSLKPEDTAVYYCAAPGYVWYGGRWVYRYYYWGQGTQVTVSS | high polyreactivity |

Would you mind giving polyreactivity (PSR sort gate) for every sequence in the list below?
1. QVQLVESGGGLVQAGGSLRLSCAASGRIFGYYAMGWYRQAPGKERELVAAISWSGGSTFYADSVKGRFTISRDYAKNTVYLQMISLKPEDTAVYYCNKDHLVYPSEFYYWGQGTQVTVSS
2. QVQLVESGGGLVQAGGSLRLSCAASGFSFGVYAMGWSRQAPGKERELVAAISTTVGSTYYADSVKGRFTISRDNAKNTVYLQMNSLKPEDTAVYYCAAEYTGYINYYIYEYWGQGTQVTVSS
3. QVHLVESGGGLVQAGGSLRLSCAASGFTFSFYAMGWYRQAPGKERELVAAIDRSGGSTYYADSVKGRFTISRDNAKNTVYLQMNSLKPEDTAFYYCAATVFYGYYYWGQGTQVTVSS
4. QVQLVESGGGLVQAGGSLRLSCAASGRIFNRYAMGWYRQAPGKERELVAAINSSGGSTYYADSVKGRFTISRDNAKNTVYLQMNSLKPEDTAVYYCARVSYHYRTYDYWGQGTQVTVSS
5. QVRLVESGGGLVQAGGSLRLSCAASGRIFGYYTMGWYRQAPGKERELVADNNRDGSTYADSVKGRFTLSRDNAKNTVYLQMNSLKPEDTAVYYCNAQYDSAYGLGFFIGYFSQYDYWGQGTQVTVSS
6. QVQLVESGGGLVQAGGSLRLSCAASGITFYGYVMGWYRQAPGKERELVAAISTSGGSTYYADSVKGRFTISRDNAKNTVYLQMNSLKPEDTAVYYCAKYLYPFYPDYDYWGQGTQVTVSS

1. low polyreactivity
2. low polyreactivity
3. high polyreactivity
4. high polyreactivity
5. low polyreactivity
6. high polyreactivity

Would you mind giving polyreactivity (PSR sort gate) for every sequence in the list below?
1. QVQIVESGGGLVQAGGSLRLSCAASGIIFYNYAMGWYREAPGKERELVAAITGTGSRTYYADSVKGRFTISRDNAKNTVYLQMNSLNPEDTAVYYCAVNTRRYWYGYWGQGTQVTVSS
2. QVQLVESGGGLVQAGGSLRLSCAASGSISPYNAKGWYRQAPGKERELVAAISSGGRTYYAVSVKGRFTISRDNAKNTVYLQMNSLKPEDTAVYYCNKYPLRPYRGLGVYYRSDYWGQGTQVTVSS

high polyreactivity
high polyreactivity

Would you mind giving polyreactivity (PSR sort gate) for every sequence in the list below?
1. QVQLVESGGGLVQAGCSLRLSCAASGSIFRVYAMGWYRQAPGKEREFVAAITRSGGSTYYADSVKGRFTISRDNAKNTVYLQMNSLKPEDTAVYYCNAVYYSWAQSARFDYWGQGTQVTVSS
2. QVQLVESGGGLVQAGGSLRLSFAASGSILSYYAMGWYTQAPGKERELGAAISKSGGRTYYADSVKGRFTISRDNEKNTVYLQMNSLKPEDTAVYYCAADRYYLSRRPVQNGNEYWGQGTQVTVSS
3. QVQLVESGGGLVQAGGSLRLSSAASGSTFGAYAMGWYRQAPGKERELVAVINSDGSTNYADSVKGRFTISRDNAKNTVYLQMNSLKPEDTAVYFCAKERTSRGGVPRMNYWGQGTQVTVSS
4. QVQLVESGGGLVQAGGSLRLSCAASGFTFAYYAMGWYRQAPGKERELVAAITSRGGSTYYADSVKGRFTISRDNAKNTVYLQMNSLKPEDTAVYYCATKRVLTGYDSWGQGTQVTVSS

low polyreactivity
high polyreactivity
low polyreactivity
high polyreactivity

Would you mind giving polyreactivity (PSR sort gate) for every sequence in the list below?
1. PVQLVESGGGLVQAGGSHRLSCAASGSIFYFNAMGWYRQAPGKERELVAVITDRGSTYYSDSVKGRFTISRDNAKNTVYLQMNSLKPEDTAVYYCAAQTPGVYLRQIGGYYYWGQGTQVTVSS
2. QVQLVESGGGLVQAGGSLRLSCAASGRIFDGYAMGWYRQAPGQERELVAAISSRGGRTYYADSVKGRFTISRDHAKNTVYLQMNSLKPEDTAVYYCAADDPYGEGDYWGQGTQVTVSS
3. QVQLVESGGGLVQAGGSLRLSCAASGLIFQHNAMGWYRQAPGKEMELVAAISRSAGSTYYADSVKGRFTISRDKAKNTVYLQMNSLKPEDTAVYYCARQYGYQPVRYGYWGQGTQVTVSS
4. QVQLVESGGGLVQAGGSLRLSCAASGNIFPMNAMGWYIEAPGKERELVAAISYSGTSTYYADSVKGRFTISRDKAKNTVYLQMNSLKPEDTAVYYCAARVQRLNLGDYNYWGQGTQVTVSS

1: low polyreactivity; 2: low polyreactivity; 3: low polyreactivity; 4: low polyreactivity

###

experiment: yeast display, Sf9 membrane polyspecificity reagent, FACS + sequencing; frameworks hold sequencing errors
Metric Name: polyreactivity (PSR sort gate)

Worked examples follow.
| Sequence Input | polyreactivity (PSR sort gate) |
| --- | --- |
| LVQAGGSLRLSCAASVNTSGKNAMGWYRQAPGKERELVAAISSAGSTNYADSVKGRFTISRDNAKNTVYLQMNSLKPEDTAVYYCNAVRRLATVKTYRFNYWGQGTQVTVSS | low polyreactivity |
| QVQLVESGGGLVQAGGSLRLSCAASGRTYHAYAMGWYRQAPGKGRELVAAITRTGTTHYADSVKGRFTISRDNAKNTVYLQMTSLKPEDTAVYYCAAQHVRVDAQFVLQGYDYWGQGTQVTVSS | low polyreactivity |
| QVQLVESGGGLVQAGGSLRISCAASGNIFGIYTMGWYRQAPGKEREFFAVISLSGTSTYYADSVKGRFTISRDNAKNTVYLQMNSLKPEDTAVYYCNARTPHNKGRRRAYDYWGLGTQVTVSS | high polyreactivity |
| QEQLQESCGGLVLAGGSLRLSCASSGSISAQAYMGWDRQAPGKEREHVAGINYGDNTNYADSVKGRFTISRDNEHRVSADEQPETGRYRGVLLRGFLELFYYYIYWGQGTQVTVSS | high polyreactivity |

What does the record list as polyreactivity (PSR sort gate) for QDQLVESGGGLVQAGGSLRLSCAASGSTFPAYAMGWYRQAPGKERELVAAISVRRGRTYYADSVKGRFTSSRDNAKNTVYLQMNSLKPDDTAVYYCAAYLRPGGNYYWGQGTQVTVSS ?
high polyreactivity
